SYSTEM: Kv1.3 potassium channel (Homo sapiens (Human), UniProt P22001)
Sequence (P22001 whole entry): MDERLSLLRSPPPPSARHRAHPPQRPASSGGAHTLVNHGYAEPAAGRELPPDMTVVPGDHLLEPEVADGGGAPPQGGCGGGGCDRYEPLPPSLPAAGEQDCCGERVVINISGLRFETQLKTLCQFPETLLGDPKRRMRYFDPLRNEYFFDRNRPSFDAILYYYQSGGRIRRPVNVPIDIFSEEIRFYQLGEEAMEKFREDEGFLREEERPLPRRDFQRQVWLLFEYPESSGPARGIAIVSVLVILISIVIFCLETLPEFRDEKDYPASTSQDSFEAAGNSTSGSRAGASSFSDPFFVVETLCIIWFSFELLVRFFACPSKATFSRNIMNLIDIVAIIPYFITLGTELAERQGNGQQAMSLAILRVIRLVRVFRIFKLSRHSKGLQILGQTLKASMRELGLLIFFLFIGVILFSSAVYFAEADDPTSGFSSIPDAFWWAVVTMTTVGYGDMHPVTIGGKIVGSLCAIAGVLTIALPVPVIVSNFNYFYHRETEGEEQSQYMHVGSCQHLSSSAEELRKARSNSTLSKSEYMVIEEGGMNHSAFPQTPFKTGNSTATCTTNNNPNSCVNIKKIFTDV
EXPERIMENT: Kv1.3 potassium channel blocker activity, automated whole-cell patch clamp in CHO-K1 cells stably expressing Kv1.3
CONDITION_PARAMETERS: Patchliner patch clamp
pIC50: −log10 of the molar value.
READOUT_KIND: pIC50

The cases that follow already have their pIC50 on record.
CN(C)C(=O)CC1CN[C@@H](c2c(O)ccc(Cl)c2Cl)C1 (stereo partly shown) [Compound 37]	> 6.00
O=C(C[C@H]1CN[C@@H](c2c(O)ccc(Cl)c2Cl)C1)N1CC(CO)(CO)C1 [Compound 70]	> 6.00
O=C(C[C@H]1CN[C@@H](c2c(O)ccc(Cl)c2Cl)C1)N1CC[C@H]1CO [Compound 68]	> 6.00

Batch lookup, pIC50 per entry.
1. NC(=O)[C@@H](CO)[C@H]1CN[C@@H](c2c(O)ccc(Cl)c2Cl)C1 (single isomer, unassigned) [Compound 76]
2. NC(=O)[C@@H](C1CC1)[C@H]1CN[C@@H](c2c(O)ccc(Cl)c2Cl)C1 (single isomer, unassigned) [Compound 79]
3. O=C(C[C@H]1CN[C@@H](c2c(O)ccc(Cl)c2Cl)C1)N1CC[C@@H]1CO [Compound 67]
4. CC(C)(O)CNC(=O)C[C@H]1CN[C@@H](c2c(O)ccc(Cl)c2Cl)C1 [Compound 66]
5. O=C(CC1CN[C@@H](c2c(O)ccc(Cl)c2Cl)C1)N1CC[C@H](O)C1 (stereo partly shown) [Compound 40]
6. O=C(CO)NC[C@H]1CN[C@@H](c2c(O)ccc(Cl)c2Cl)C1 [Compound 49]
7. CC[C@@H](C(N)=O)[C@H]1CN[C@@H](c2c(O)ccc(Cl)c2Cl)C1 (single isomer, unassigned) [Compound 46]
8. NC(=O)CC1CN[C@@H](c2cc(Cl)c(Cl)cc2O)C1 (stereo partly shown) [Compound 38]

Key:
["> 6.00", "> 6.00", "> 6.00", "> 6.00", "> 6.00", "> 6.00", "> 6.00", "> 6.00"]

Batch lookup, pIC50 per entry.
1. CC[C@@H](C(N)=O)[C@@H]1CN[C@@H](c2c(O)ccc(Cl)c2Cl)C1 (single isomer, unassigned) [Compound 73]
2. CC(C)(C(N)=O)[C@H]1CN[C@@H](c2c(O)ccc(Cl)c2Cl)C1 [Compound 52]
3. Oc1ccc(Cl)c(Cl)c1[C@H]1C[C@@H](Cc2cn[nH]c2)CN1 [Compound 54]
4. C[C@H](C(N)=O)[C@H]1CN[C@@H](c2c(O)ccc(Cl)c2Cl)C1 (single isomer, unassigned) [Compound 45]
5. NC(=O)C(CO)[C@H]1CN[C@@H](c2c(O)ccc(Cl)c2Cl)C1 (single isomer, unassigned) [Compound 77]

Key:
["> 6.00", "> 6.00", "> 7.00", "> 7.00", "> 7.00"]

* * *

SYSTEM: Kv1.3 potassium channel (Homo sapiens (Human))
EXPERIMENT: Kv1.3 potassium channel blocker activity, automated whole-cell patch clamp in CHO-K1 cells stably expressing Kv1.3
CONDITION_PARAMETERS: Patchliner patch clamp
READOUT_KIND: IC50

O=C(C[C@H]1CN[C@@H](c2c(O)ccc(Cl)c2Cl)C1)N1CCC[C@@H](O)C1 [Compound 58]	< 1000 nM
CNC(=O)CC1CN[C@@H](c2c(O)ccc(Cl)c2Cl)C1 (some centres unmarked) [Compound 36]	< 100 nM
CNC(=O)C[C@H]1CN[C@@H](c2c(O)ccc(Cl)c2Cl)C1 [Compound 42]	< 100 nM
COC[C@H](C(N)=O)[C@H]1CN[C@@H](c2c(O)ccc(Cl)c2Cl)C1 (single isomer, unassigned) [Compound 74]	< 1000 nM
C[C@@H](CO)NC(=O)C[C@H]1CN[C@@H](c2c(O)ccc(Cl)c2Cl)C1 [Compound 62]	< 1000 nM
CN(CCO)C(=O)CC1CN[C@@H](c2c(O)ccc(Cl)c2Cl)C1 (some centres unmarked) [Compound 35]	< 100 nM
NC(=O)[C@H](C1CC1)[C@H]1CN[C@@H](c2c(O)ccc(Cl)c2Cl)C1 (single isomer, unassigned) [Compound 78]	< 100 nM

Read the next record carefully.
Readout IC50 for O=C(C[C@H]1CN[C@@H](c2c(O)ccc(Cl)c2Cl)C1)N1CCC[C@H](O)C1 [Compound 59] , test system Kv1.3 potassium channel (Homo sapiens (Human)), was < 1000 nM
